System: α7 integrin (LacZ reporter in α7+/LacZ myotubes)
Assay: Myotube α7 integrin FDG assay (Burkin assay in myotubes, 96-well)
Type: cell-based, mouse
Details: myotubes, 1 uM
ENDPOINT: Burkin Assay in Myotubes, α7 integrin LacZ reporter signal relative to DMSO
Give the figure by itself; no unit, no explanation.

Worked set:
Prompt line: Quick one: Burkin Assay in Myotubes, α7 integrin LacZ reporter signal relative to DMSO of CC(NC(=O)c1ccc(C(C)(C)C)cc1)C(c1cccs1)N1CCOCC1 (stereo not drawn) [MLS001167281-01] ?
Response line: 1.054

Prompt line: Quick one: Burkin Assay in Myotubes, α7 integrin LacZ reporter signal relative to DMSO of O=C(O)C(Cc1ccc(O)cc1)N1C(=O)c2ccccc2C1=O (stereo not drawn) [MLS001165394-01] ?
Response line: 1.135

Prompt line: Quick one: Burkin Assay in Myotubes, α7 integrin LacZ reporter signal relative to DMSO of CCCOc1nc(SCCC)nc2c1cnn2-c1ccccc1 [MLS000737953-01] ?
Response line: 1.135

Prompt line: Quick one: Burkin Assay in Myotubes, α7 integrin LacZ reporter signal relative to DMSO of c1ccc(-c2cc(-c3nc4ccccc4[nH]3)c3ccccc3n2)cc1 [MLS000554416-01] ?
Response line: 0.9261

Prompt line: Quick one: Burkin Assay in Myotubes, α7 integrin LacZ reporter signal relative to DMSO of N/C(=N\OC(=O)c1cccc(C(F)(F)F)c1)c1cnccn1 [MLS001098105-01] ?
Response line: 1.053

Prompt line: Quick one: Burkin Assay in Myotubes, α7 integrin LacZ reporter signal relative to DMSO of Nc1ncnc(N2CCc3ccccc32)c1[N+](=O)[O-] [MLS000683232-01] ?
Response line: 1.2778

Prompt line: Quick one: Burkin Assay in Myotubes, α7 integrin LacZ reporter signal relative to DMSO of Cc1ccc(S(=O)(=O)N2CN(CC3CCCO3)c3nc4ccccc4nc32)c(C)c1 (stereo not drawn) [MLS001139288-01] ?
Response line: 0.8525

Prompt line: Quick one: Burkin Assay in Myotubes, α7 integrin LacZ reporter signal relative to DMSO of CC(C)(C)NC(=O)NC(=O)CN1CCN(Cc2ccccc2)CC1 [MLS001006302-01] ?
Response line: 0.9373

---
Prompt line: Quick one: Burkin Assay in Myotubes, α7 integrin LacZ reporter signal relative to DMSO of CN(/C(=N/S(=O)(=O)c1cccs1)c1ccccc1)c1ccccc1 [MLS000582947-01] ?
Response line: 1.155

====

Test system: β-galactosidase in CMV-LacZ C2C12 myoblasts
Test: CMV-LacZ secondary screen in C2C12 myoblasts (β-Gal stabilizing assay)
Assay type: cell-based, mouse
Details: 0.5 uM; SU9516 analogs, C2C12 CMV-LacZ, N=2
Description: In order to determine compounds that acted to stabilize β-gal in myogenic cells, a CMV-LacZ C2C12 cell line was used in a secondary screen. The EGFP gene from the pEGFP (Clontech) vector was replaced by LACZ PCR product with digests of the vector/PCR product performed using EcoRI (NEB) and NotI (NEB) and ligated using T4 DNA Ligase (NEB) following standard procedures to produce the CMV-LACZ vector. […]
ENDPOINT: CMV-LACZ in Myoblasts, value relative to DMSO

Prompt line: Quick one: CMV-LACZ in Myoblasts, value relative to DMSO of `O=Nc1c(-c2c(O)[nH]c3cc(Br)ccc23)[nH]c2ccccc12` ?
Response line: 1.1721

Prompt line: Quick one: CMV-LACZ in Myoblasts, value relative to DMSO of `O=C1Nc2ccccc2/C1=C/c1cccnc1` ?
Response line: 0.9075

Prompt line: Quick one: CMV-LACZ in Myoblasts, value relative to DMSO of `C=CCOc1ccc(C(=O)/C=C2/C(=O)Nc3ccccc32)cc1` ?
Response line: 1.0657

Prompt line: Quick one: CMV-LACZ in Myoblasts, value relative to DMSO of `O=C(O)COc1ccccc1/C=C1\C(=O)Nc2ccc(Br)cc21` ?
Response line: 0.7219

---
Prompt line: Quick one: CMV-LACZ in Myoblasts, value relative to DMSO of `CCOc1cc2c3c(c1)C(C)=CC(C)(C)N3C(=O)C2=O` ?
Response line: 1.0173

Prompt line: Quick one: CMV-LACZ in Myoblasts, value relative to DMSO of CCN(CC)CCNC(=O)c1c(C)[nH]c(/C=C2\C(=O)Nc3ccc(F)cc32)c1C [NCGC00164631-03] ?
Response line: 0.8658

Prompt line: Quick one: CMV-LACZ in Myoblasts, value relative to DMSO of `N#C/C(=C1/C(=O)Nc2ccc(Br)cc21)c1ccccn1` ?
Response line: 0.9906

Prompt line: Quick one: CMV-LACZ in Myoblasts, value relative to DMSO of `Cc1ccccc1/C=C1\C(=O)Nc2ccc(F)cc21` ?
Response line: 0.7904

Prompt line: Quick one: CMV-LACZ in Myoblasts, value relative to DMSO of `O=C1C(c2c(O)[nH]c3ccccc23)=Nc2ccccc21` ?
Response line: 1.1867
